Measured values drawn from ChEMBL document CHEMBL1201862 for this set.

Tested on: Malme-3M
Assay: NCI tumour cell line growth inhibition, 48 h
Active and inactive are the calls of the source. Rule as the data show it: active = GI50 up to about 1.1 µM and inactive = higher.
Your reply should match one of these outcome classes. t for active, f for inactive

The examples below pair each entry with its known result.
| Compound | Label |
| --- | --- |
| CC1=NN(c2nc(N)nc(-c3sccc3N)n2)C(C)(C)C1 | f |
| CCOc1nnnc2[nH]cnc12 | f |
| COc1ccc(C(=O)O/N=C2/CCC/C2=C\c2ccccc2)cc1 | f |
| O=C(O)/C(Cl)=C(\Cl)C(=O)NC1C2CC3CC(C2)CC1C3 (centres undefined) | f |
| O=C1c2ccccc2C2(O)c3cc4ccccc4cc3OC12O (centres undefined) | f |
| COc1cc(/N=N/N(C)C)c(C(C)c2c3cc(OC)c(OC)cc3cc[n+]2C)cc1OC (centres undefined) | f |

I'd appreciate the recorded outcome for "CC(=O)O[C@H]1[C@@H](OC(C)=O)C(C)(C)/C=C/[C@H](C)C(=O)[C@@]2(OC(C)=O)C[C@@](C)(OC(C)=O)[C@H](OC(C)=O)[C@@H]2[C@H]2OC(=O)CC[C@@]2(OC(=O)c2ccccc2)[C@@H]1OCC(C)C" from this test.
f

What would you report for "CCOC(=O)CN1C(=O)c2cc([N+](=O)[O-])cc3cc([N+](=O)[O-])cc(c23)C1=O" ?
f

What would you report for "COc1ccc([N+](=O)[O-])cc1[I+]c1cc([N+](=O)[O-])ccc1OC" ?
f

What would you report for "COc1ccc(OC)c(NC(=O)C(=O)CC(=O)c2sc(-n3nc(-c4ccccc4)cc3-c3ccccc3)nc2C)c1" ?
f

What would you report for "C#CCn1c2c(c3ccccc3c1=O)C(=O)c1ccccc1-2" ?
f

What would you report for "O=Cc1cc2c(s1)C(=O)c1sccc1C2=O" ?
t

What would you report for "COc1ccc2c(c1[N+](=O)[O-])CC[C@@H]1[C@@H]2CC[C@]2(C)C(=O)CC[C@@H]12" ?
f

----------
System: SR
Assay: NCI tumour cell line growth inhibition, 48 h
Active and inactive are the calls of the source. Cut-off read from the data, not from the text of the source: active = GI50 up to about 1.1 µM and inactive = higher. Where a SMILES comes first, the peptide text is derived from it. [ ]: non-standard residue; d: D form. ξ: configuration not given here. ξThz(5,5-Me2) = CC1(C)SCNC1C(=O)O
Readout kind: GI50

Worked examples, 8 molecules total:
| Molecule | GI50 |
| --- | --- |
| CSCC[C@H](NC(=O)[C@H](CC(C)C)NC(=O)[C@H](Cc1c[nH]cn1)NC(=O)CNC(=O)C1N(C(=O)[C@@H](C)NC(=O)[C@H](Cc2c[nH]c3ccccc23)NC(=O)[C@H](CCC(N)=O)NC(=O)[C@@H](N)CC(N)=O)CSC1(C)C)C(N)=O (stereo partly specified) (H-NQW[dA][ξThz(5,5-Me2)]GHLM-NH2) | > 25 µM (inactive) |
| Cc1cc2nc3c(C)c4ccccc4c(C)n3c2cc1C | 2.96 µM (inactive) |
| NC(=O)c1ncn(C2OC(CO)C(O)C2O)c1NC=O (stereo unspecified) | > 100 µM (inactive) |
| CC(C)C(/C=C/c1ccc(Br)cc1)=N\NC(N)=O | > 100 µM (inactive) |
| NC(CCOCCP(=O)(O)CCC1C=CC=CC1)C(=O)O (stereo unspecified) | > 100 µM (inactive) |
| COc1ccc(OC)c(NC(=O)C(=O)CC(=O)c2sc(-n3nc(-c4ccccc4)cc3-c3ccccc3)nc2C)c1 | 27.7 µM (inactive) |
| COc1ccc(OC)c(/C=C/c2ccnc3ccccc23)c1 | 0.277 µM (active) |
| C1CCNCC1.S=C(S)N1CCCCC1 | 0.46 µM (active) |

// fetch SR GI50 for CNC(=S)NC1CCCCC1NC(=S)NC (stereo unspecified)
> 100 µM (inactive)

What would you report for COC(=O)C1=C(N)C2=C(N)Oc3ccccc3C2CC1=C(C#N)C#N (stereo unspecified) ?
12.6 µM (inactive)

What would you report for "CC(=O)Nc1ccccc1-c1nc2ccccc2nc1-c1ccccc1" ?
> 100 µM (inactive)

What would you report for "Cc1ccc(O)c(Cc2nc3ccccc3nc2-c2cccc(Br)c2)c1" ?
33.2 µM (inactive)

What would you report for "CC(=O)CC(=O)Nc1ccc2ccccc2c1" ?
51.5 µM (inactive)

What would you report for "O=C(CCCN1CCc2[nH]c3cc(F)ccc3c2C1)c1ccc(F)cc1" ?
8.49 µM (inactive)

What would you report for COc1cc2c(cc1OC)C1CN3C(=O)CCC3C(O)C1c1cc(OC)c(OC)cc1-2 (stereo unspecified) ?
> 100 µM (inactive)

What would you report for "O=Cc1cc2c(s1)C(=O)c1sccc1C2=O" ?
0.303 µM (active)

What would you report for "CN(C)C(=O)NC(=S)N(C)C" ?
> 100 µM (inactive)

What would you report for "CSC(=N/N=C(\C)c1ccc(S(=O)(=O)N(C)c2ccccc2)cc1)SC" ?
> 59.6 µM (inactive)

What would you report for CC1(CCOCc2ccccc2)NC(=O)NC1=O (stereo unspecified) ?
> 100 µM (inactive)

What would you report for "COc1c(Br)cc(/C=C(\C#N)c2ccccn2)cc1Br" ?
> 100 µM (inactive)

What would you report for "CC(=O)Nc1ccc(C2=N/C(=C\c3ccc(Cl)c(Cl)c3)C(=O)O2)cc1" ?
68.9 µM (inactive)

What would you report for "CCS(=O)(=O)CCn1cnc2c1c(=O)n(C)c(=O)n2C" ?
0.0318 µM (active)
